molecular target: Acetylcholinesterase (Electrophorus electricus)
Sequence (O42275 whole entry): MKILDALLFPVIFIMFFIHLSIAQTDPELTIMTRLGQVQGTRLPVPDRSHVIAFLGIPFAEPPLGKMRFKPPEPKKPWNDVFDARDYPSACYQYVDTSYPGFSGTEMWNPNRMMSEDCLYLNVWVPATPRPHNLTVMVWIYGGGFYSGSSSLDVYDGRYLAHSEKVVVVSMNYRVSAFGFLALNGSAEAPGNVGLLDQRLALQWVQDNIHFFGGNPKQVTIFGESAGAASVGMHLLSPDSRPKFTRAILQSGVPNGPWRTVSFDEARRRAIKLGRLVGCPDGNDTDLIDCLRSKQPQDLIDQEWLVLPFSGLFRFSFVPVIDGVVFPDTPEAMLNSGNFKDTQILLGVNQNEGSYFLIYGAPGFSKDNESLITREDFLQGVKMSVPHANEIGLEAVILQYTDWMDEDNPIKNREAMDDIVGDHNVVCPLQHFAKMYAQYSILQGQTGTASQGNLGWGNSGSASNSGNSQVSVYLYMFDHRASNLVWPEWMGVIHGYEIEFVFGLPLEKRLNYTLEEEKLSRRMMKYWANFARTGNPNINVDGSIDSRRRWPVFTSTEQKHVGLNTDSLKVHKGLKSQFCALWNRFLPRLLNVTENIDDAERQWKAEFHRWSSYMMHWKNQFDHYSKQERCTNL
# if measured IC50 < 500 nM: fulfilled  # else: not fulfilled

1) COc1cccc(NC(=O)C2Cc3cc(OC)c(OC)cc3C2=O)c1 (configuration not stated)
not fulfilled
2) CCc1ccc(NC(=O)C2Cc3cc(OC)c(OC)cc3C2=O)cc1 (configuration not stated)
not fulfilled
3) COc1cc2c(cc1OC)C(=O)C(C(=O)Nc1cccc(F)c1)C2 (configuration not stated)
fulfilled
4) COc1cc2c(cc1OC)C(=O)C(C(=O)Nc1ccc(C)cc1)C2 (configuration not stated)
not fulfilled
5) CCc1cccc(NC(=O)C2Cc3cc(OC)c(OC)cc3C2=O)c1 (configuration not stated)
not fulfilled
6) COc1ccc(NC(=O)C2Cc3cc(OC)c(OC)cc3C2=O)cc1 (configuration not stated)
not fulfilled
7) COc1cc2c(cc1OC)C(=O)C(C(=O)Nc1ccccc1Cl)C2 (configuration not stated)
fulfilled
8) COc1cc2c(cc1OC)C(=O)C(C(=O)Nc1ccccc1Br)C2 (configuration not stated)
fulfilled
9) COc1cc2c(cc1OC)C(=O)C(C(=O)Nc1ccc(F)cc1)C2 (configuration not stated)
fulfilled
10) CCc1ccccc1NC(=O)C1Cc2cc(OC)c(OC)cc2C1=O (configuration not stated)
not fulfilled
11) COc1cc2c(cc1OC)C(=O)C(C(=O)Nc1ccccc1)C2 (configuration not stated)
not fulfilled
12) COc1cc2c(cc1OC)C(=O)C(C(=O)Nc1cccc(Br)c1)C2 (configuration not stated)
fulfilled
13) COc1ccccc1NC(=O)C1Cc2cc(OC)c(OC)cc2C1=O (configuration not stated)
not fulfilled
14) COc1cc2c(cc1OC)C(=O)C(C(=O)Nc1ccc(Br)cc1)C2 (configuration not stated)
fulfilled
15) CCOc1cccc(NC(=O)C2Cc3cc(OC)c(OC)cc3C2=O)c1 (configuration not stated)
not fulfilled
16) CCOc1ccccc1NC(=O)C1Cc2cc(OC)c(OC)cc2C1=O (configuration not stated)
not fulfilled
17) COc1cc2c(cc1OC)C(=O)C(C(=O)Nc1cccc(Cl)c1)C2 (configuration not stated)
fulfilled
18) COc1cc2c(cc1OC)C(=O)C(C(=O)Nc1ccccc1C)C2 (configuration not stated)
fulfilled
19) COc1cc2c(cc1OC)C(=O)C(C(=O)Nc1cccc(C)c1)C2 (configuration not stated)
not fulfilled
20) COc1cc2c(cc1OC)C(=O)C(C(=O)Nc1ccccc1F)C2 (configuration not stated)
fulfilled
21) CCOc1ccc(NC(=O)C2Cc3cc(OC)c(OC)cc3C2=O)cc1 (configuration not stated)
not fulfilled
